The origin of these recorded values is the Human Domainome abundance scans (Beltran et al. 2025).

Property: abundance fitness; scope: individual variants
B1: Dystrobrevin alpha, residues 235 to 294; numbered along this chain, Q9Y4J8 (parent)
chain: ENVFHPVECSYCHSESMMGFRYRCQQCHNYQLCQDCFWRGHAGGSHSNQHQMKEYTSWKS

Variants of: B1
Experiment: abundance fitness (aPCA) (normalised: wild type 0, dead -1); higher = more abundant; growth selection in yeast, the domain comes from the species named
Details: Homo sapiens
I only need the number, thanks.

Use the examples below as a reference point.
S57L; -0.165
C9Y; -1.26
F20I; 0.061
Q26T; 0.012
G40T; -0.366
M17G; 0.085
C24F; -1.04
G44I; -0.719

Query: Please give the measured abundance fitness for this variant: F4C
Result: 0.009

Query: // query: S47P
Result: -0.172

Query: Same read-out for F4Y ?
Result: 0.084
